Hey, just so you know, these numbers are from ChEMBL document CHEMBL2311426.

Tested on: Enterococcus faecalis
Experiment: Antibacterial activity against Enterococcus faecalis C21560 by turbidity method
Assay type: functional
Settings: read-out: MIC100
measurement type: MIC (µg/mL)
Give the value in µg/mL but do not write µg/mL after it.

// known answers, use as guide
molecule	unit	MIC
CO/C(C)=C1/NC(=O)[C@H]([C@@H](C)O)NC(=O)c2csc(n2)-c2cc(O)c(-c3nc(CNCCO)cs3)nc2-c2csc(n2)[C@@H]2COC(=O)c3c4c5c(cccc5n3O)COC(=O)[C@@H](O[C@H]3C[C@](C)(O)[C@H](N(C)C)[C@H](C)O3)[C@@H](OC4)[C@H](NC(=O)c3csc1n3)c1nc(cs1)C(=O)N2	µg/mL	0.06
CO/C(C)=C1/NC(=O)[C@H]([C@@H](C)O)NC(=O)c2csc(n2)-c2cc(O)c(-c3nc(CNCC(C)(C)N4CCOCC4)cs3)nc2-c2csc(n2)[C@@H]2COC(=O)c3c4c5c(cccc5n3O)COC(=O)[C@@H](O[C@H]3C[C@](C)(O)[C@H](N(C)C)[C@H](C)O3)[C@@H](OC4)[C@H](NC(=O)c3csc1n3)c1nc(cs1)C(=O)N2	µg/mL	0.03
CO/C(C)=C1/NC(=O)[C@H]([C@@H](C)O)NC(=O)c2csc(n2)-c2cc(O)c(-c3nc(CNCC[C@H](O)[C@H](O)CO)cs3)nc2-c2csc(n2)[C@@H]2COC(=O)c3c4c5c(cccc5n3O)COC(=O)[C@@H](O[C@H]3C[C@](C)(O)[C@H](N(C)C)[C@H](C)O3)[C@@H](OC4)[C@H](NC(=O)c3csc1n3)c1nc(cs1)C(=O)N2	µg/mL	1
CO/C(C)=C1/NC(=O)[C@H]([C@@H](C)O)NC(=O)c2csc(n2)-c2cc(O)c(-c3nc(CNC(=O)NCC(O)CO)cs3)nc2-c2csc(n2)[C@@H]2COC(=O)c3c4c5c(cccc5n3O)COC(=O)[C@@H](O[C@H]3C[C@](C)(O)[C@H](N(C)C)[C@H](C)O3)[C@@H](OC4)[C@H](NC(=O)c3csc1n3)c1nc(cs1)C(=O)N2 (stereo partly drawn)	µg/mL	0.5
C=C(NC(=O)c1csc(-c2nc3c(cc2O)-c2nc(cs2)C(=O)N[C@@H]([C@@H](C)O)C(=O)N/C(=C(\C)OC)c2nc(cs2)C(=O)N[C@@H]2c4nc(cs4)C(=O)N[C@@H](COC(=O)c4c5c6c(cccc6n4O)COC(=O)[C@@H](O[C@H]4C[C@](C)(O)[C@H](N(C)C)[C@H](C)O4)[C@H]2OC5)c2nc-3cs2)n1)C(N)=O	µg/mL	0.03
CO/C(C)=C1/NC(=O)[C@H]([C@@H](C)O)NC(=O)c2csc(n2)-c2cc(O)c(-c3nc(CN(C)C)cs3)nc2-c2csc(n2)[C@@H]2COC(=O)c3c4c5c(cccc5n3O)COC(=O)[C@@H](O[C@H]3C[C@](C)(O)[C@H](N(C)C)[C@H](C)O3)[C@@H](OC4)[C@H](NC(=O)c3csc1n3)c1nc(cs1)C(=O)N2	µg/mL	0.0075
CO/C(C)=C1/NC(=O)[C@H]([C@@H](C)O)NC(=O)c2csc(n2)-c2cc(O)c(-c3nc(CNCc4cncnc4)cs3)nc2-c2csc(n2)[C@@H]2COC(=O)c3c4c5c(cccc5n3O)COC(=O)[C@@H](O[C@H]3C[C@](C)(O)[C@H](N(C)C)[C@H](C)O3)[C@@H](OC4)[C@H](NC(=O)c3csc1n3)c1nc(cs1)C(=O)N2	µg/mL	0.03

Let us move to another entry and its MIC.
What does the data say about its MIC? Entry: "CO/C(C)=C1/NC(=O)[C@H]([C@@H](C)O)NC(=O)c2csc(n2)-c2cc(O)c(-c3nc(CNC(=O)CCN4CCOCC4)cs3)nc2-c2csc(n2)[C@@H]2COC(=O)c3c4c5c(cccc5n3O)COC(=O)[C@@H](O[C@H]3C[C@](C)(O)[C@H](N(C)C)[C@H](C)O3)[C@@H](OC4)[C@H](NC(=O)c3csc1n3)c1nc(cs1)C(=O)N2" 0.12
